Task for the reader: assign each of the following binders its reported hCRHR1 Luciferase Reporter Assay IC50.
Molecular target: T1, corticotropin-releasing hormone (CRH) peptide (human and mouse (same sequence), not fully specified)
T1 peptide: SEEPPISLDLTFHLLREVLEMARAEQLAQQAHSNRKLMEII
Experiment: cell-based or functional assay
Use nM as the unit, but write only the number.

Q: Please look up its hCRHR1 Luciferase Reporter Assay IC50: PR006669 (antibody, human IgG1, kappa, V domains shown) VH: EVQLVESGGGLVQPGGSLRLSCAASGFTFSDNWMSWVRQAPGKGLEWVANIKQDGSENYYVDSVKGRFTISRDNAKNSLYLQMNSLRAEDTAVYYCSRGLALWGWGQGTLVTVSS VL: DIVMTHSPLSLPVTPGDPASISCRSSQSLLHSTGYNYLDWYLQKPGQSPQLLIYLGSNRASGVPDRFSGSGSGTDFTLKFIRVEAEDVGVYYCMQALQTPYTFGQGTKLEIKR
Result: 7.38

Q: Please look up its hCRHR1 Luciferase Reporter Assay IC50: PR004290 (antibody, human IgG1, kappa, V domains shown, Series 1; human IgG1 wildtype Fc; also called Hybridoma Clone 28b3) VH: EVQLVESGGVLVQPGGSLRLSCAASGFTFSSYWMTWVRQAPGKGLEWVANIKQDGSEKYYVDSVKGRFTISRDNAKNSLFLQMNSLRAEDTAVYYCARTLIFDYWGQGTLVTVSS VL: DIVMTQSPLSLPVTPGEPASISCRSSQSLLHSTGYNSLEWYLQKPGQSPQLLIYLGSNRASGVPDRFSGSGSGTDFTLKISRVEAEDVGIYYCMQTLQTPITFGQGTRLEIKR
Result: 3.69

Q: Please look up its hCRHR1 Luciferase Reporter Assay IC50: PR006746 (antibody, human IgG1, kappa, V domains shown) VH: EVQLVESGGGLVQPGGSLRLSCAASGFTFSDNWMSWVRQAPGKGLEWVANIKQDSSENYYVDSVKGRFTISRDNAKNSLYLQMNSLRAEDTAVYYCSRGLALWGWGQGTLVTVSS VL: DIVMTHSPLSLPVTPGDPASISCRSSQSLLHSTGYNYLDWYLQKPGQSPQLLIYLGSNRASGVPDRFSGSGSGTDFTLKFIRVEAEDVGVYYCMQALQTPYTFGQGTKLEIKR
Result: 10

Q: Please look up its hCRHR1 Luciferase Reporter Assay IC50: PR006745 (antibody, human IgG1, kappa, V domains shown) VH: EVQLVESGGGLVQPGGSLRLSCAASGFTFSDNWMSWVRQAPGKGLEWVANIKQDASENYYVDSVKGRFTISRDNAKNSLYLQMNSLRAEDTAVYYCSRGLALWGWGQGTLVTVSS VL: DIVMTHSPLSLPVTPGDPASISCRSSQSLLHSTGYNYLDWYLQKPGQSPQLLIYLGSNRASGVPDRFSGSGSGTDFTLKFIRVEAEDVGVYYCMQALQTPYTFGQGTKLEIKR
Result: 13.2

Data origin: patent US20260042834A1
